Reference source: PubChem BioAssay

- TARGET: Regulator of G-protein signaling 4 (Homo sapiens) + Guanine nucleotide-binding protein G(o) subunit alpha (Homo sapiens) (UniProt P49798+P09471)
- Sequence (P09471 whole entry, looked up): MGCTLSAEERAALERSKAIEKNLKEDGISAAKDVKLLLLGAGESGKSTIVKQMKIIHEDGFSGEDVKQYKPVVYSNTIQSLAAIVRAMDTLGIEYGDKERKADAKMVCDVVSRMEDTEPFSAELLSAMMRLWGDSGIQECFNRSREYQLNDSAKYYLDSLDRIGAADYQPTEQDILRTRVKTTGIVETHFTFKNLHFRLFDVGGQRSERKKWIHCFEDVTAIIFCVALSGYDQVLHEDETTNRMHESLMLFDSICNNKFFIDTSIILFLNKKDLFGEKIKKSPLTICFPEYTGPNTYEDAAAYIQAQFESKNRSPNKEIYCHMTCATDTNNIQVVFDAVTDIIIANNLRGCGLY
- Sequence (P49798 whole entry, looked up): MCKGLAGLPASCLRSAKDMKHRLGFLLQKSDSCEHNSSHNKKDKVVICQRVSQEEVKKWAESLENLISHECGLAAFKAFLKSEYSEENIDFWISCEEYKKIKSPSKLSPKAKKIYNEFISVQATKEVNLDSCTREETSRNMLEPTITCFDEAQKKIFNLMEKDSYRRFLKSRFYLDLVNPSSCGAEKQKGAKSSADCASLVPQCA
- ASSAY: small molecules altering RGS protein interactions with GNAO1 – biochemical, multiplexed beads, flow cytometry, RGS4/7/8/16/19, primary screen (AID 1504);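 also: fluorescently labeled Galpha-o bound to GDP with aluminium fluoride binding biotinylated RGS beads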
- RUN CONDITIONS: multiplexed bead flow cytometry, at 10 µM
The other results are listed elsewhere or left out.
MEASURE NAME: RGS4–Galpha-o binding response (%)

GIVEN SMILES	MEASURE NAME	MEAS VALUE
CCC(=O)Nc1c(S(=O)(=O)c2ccccc2)c2nc3ccccc3nc2n1Cc1ccccc1	RGS4–Galpha-o binding response	89.8
COc1ccc(-c2nn(-c3ccccc3)cc2C(=O)Nc2nccs2)cc1OC	RGS4–Galpha-o binding response	90.3
O=c1[nH]c2ccccc2s1	RGS4–Galpha-o binding response	88.6
O=C(Nc1ccccc1)c1cc2ccccc2[nH]1	RGS4–Galpha-o binding response	90.3

---

- TARGET: Guanine nucleotide-binding protein G(o) subunit alpha (Homo sapiens)
- ASSAY: RGS4 and Galphao interaction regulators – biochemical, single concentration, multiplexed bead flow cytometry, confirmation (AID 1840)
- RUN CONDITIONS: at 10 µM, actives lie on both sides
Some of the results follow.
Reported binding response (% of control) by item:

COMPOUND	TARGET	binding response (% of control) / %
Cc1ccccc1CS(=O)(=O)CC1(O)CCN(C(=O)c2cccc(C(F)(F)F)c2)CC1	Guanine nucleotide-binding protein G(o) subunit alpha (Homo sapiens)	105
C=CCn1c(=NC(=O)c2cccs2)sc2cc(NC(C)=O)ccc21	Guanine nucleotide-binding protein G(o) subunit alpha (Homo sapiens)	102
Cc1cc(C)n(CC(O)CN(c2ccccc2)S(=O)(=O)c2ccc3ccccc3c2)n1 (stereo unspecified)	Guanine nucleotide-binding protein G(o) subunit alpha (Homo sapiens)	104
CCOC(=O)C1=C(c2ccccc2)N=C2SCC(=O)N2C1c1ccc(O)c(OC)c1 (stereo unspecified)	Guanine nucleotide-binding protein G(o) subunit alpha (Homo sapiens)	106
Cc1cc(C)nc(/N=C2\NC(=O)CC(C(=O)O)N2c2ccc(Cl)cc2Cl)n1 (stereo unspecified)	Guanine nucleotide-binding protein G(o) subunit alpha (Homo sapiens)	102
CCC(=O)N1CCC(C(N)=O)(N2CCCCC2)CC1	Guanine nucleotide-binding protein G(o) subunit alpha (Homo sapiens)	94.8
COc1ccc(C(=O)NNc2cc(C)nc(NNC(=O)c3ccc(OC)cc3)n2)cc1	Guanine nucleotide-binding protein G(o) subunit alpha (Homo sapiens)	110
C/C(=N\NS(=O)(=O)c1ccc(Br)cc1)c1cccs1	Guanine nucleotide-binding protein G(o) subunit alpha (Homo sapiens)	104
Cc1ncoc1C(=O)NCCC(c1ccccc1)c1ccccc1	Guanine nucleotide-binding protein G(o) subunit alpha (Homo sapiens)	103
Cc1c(Br)cc(C(=O)N2CCCCCC2)c(C)c1C	Guanine nucleotide-binding protein G(o) subunit alpha (Homo sapiens)	102
C=CCNc1nc(N)c(C(=C(C#N)C#N)c2ccccc2)s1	Guanine nucleotide-binding protein G(o) subunit alpha (Homo sapiens)	95.9
COc1ccccc1CCNC(=O)CSc1nnc2ccc(-c3cccnc3)nn12	Guanine nucleotide-binding protein G(o) subunit alpha (Homo sapiens)	101
COc1ccccc1NC(=O)CCCc1c[nH]c2ccccc12	Guanine nucleotide-binding protein G(o) subunit alpha (Homo sapiens)	92.5
Cc1ccc(-n2c(SCC(=O)Nc3ncc(Cl)cc3Cl)nc3ccccc32)cc1	Guanine nucleotide-binding protein G(o) subunit alpha (Homo sapiens)	104
NC(=O)Cc1ccc2sc(-c3ccccc3)nc2c1	Guanine nucleotide-binding protein G(o) subunit alpha (Homo sapiens)	55.9
Cc1ccc(C)c(OCC(=O)N2CCN(C(=O)c3ccco3)CC2)c1	Guanine nucleotide-binding protein G(o) subunit alpha (Homo sapiens)	106

---

Reported efflux inhibition (fraction of control) by item:
- ASSAY: Nile Red efflux blockade in pump-expressing yeast – validation compound set, multiplex, phenotypic, pilot screen (AID 588506);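 also: Nile Red retained in cells so higher fluorescence means more efflux inhibition; 0 = negative control wells and 1 = enniatin B 25 µM full block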
- RUN CONDITIONS: S. cerevisiae pump-expressing triplex, Nile Red efflux flow cytometry; at 10 µM; stronger effect = higher value; the pumps come from Candida albicans
Active and inactive are the calls of the source.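 How the source made its calls: active means efflux inhibition above 0.42, the validation set average plus 4 SD; inconclusive means no clear call, values can overlap the other calls; inactive means the rest.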

COMPOUND	efflux inhibition (fraction of control)
COc1ccc(O)c(C2=Nc3ccccc3N=C(c3ccccc3)C2)c1	0.34 (inactive)
CCSC(=O)CCCCCCCCCCCO	0.17 (inactive)
CC(=O)Nc1ccc2[nH]c(C)c(CC=C(Cl)Cl)c(=O)c2c1	0.14 (inactive)
CNC(=O)Oc1ccc2c(c1)[C@]1(C)CCN(C)[C@@H]1N2C	0.12 (inactive)
c1ccc(-c2ccccn2)nc1	-0.08 (inactive)
COc1ccccc1NC(=O)C12CCC(C)(C(=O)C1)C2(C)C (stereo unspecified)	0 (inactive)

---

- TARGET: GTPase HRas (Homo sapiens) (UniProt P01112)
- Sequence (P01112 whole entry, looked up): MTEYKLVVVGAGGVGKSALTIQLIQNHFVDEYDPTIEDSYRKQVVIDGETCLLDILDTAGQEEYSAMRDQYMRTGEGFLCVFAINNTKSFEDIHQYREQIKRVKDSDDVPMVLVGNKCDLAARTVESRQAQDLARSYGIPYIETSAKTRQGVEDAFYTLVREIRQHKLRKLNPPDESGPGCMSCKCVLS
- ASSAY: Ras wt fluorescent GTP loading blockade – biochemical, wildtype, multiplex bead flow cytometry, dose response (AID 1335)
- RUN CONDITIONS: bead-based flow cytometry, Bodipy-GTP binding to GST-Ras; at 100 µM (top of the series) unless noted

MOLECULE	TARGET	GTP binding, percent of control (%)
Fc1cccc(CSc2ccc3nnc(-c4cccnc4)n3n2)c1	GTPase HRas (Homo sapiens) (UniProt P01112)	73.3
NS(=O)(=O)c1cccnc1Nc1c(Cl)cccc1Cl	GTPase HRas (Homo sapiens) (UniProt P01112)	152
O=C(O)c1cccc(NCc2ccc3c(c2)OCO3)c1	GTPase HRas (Homo sapiens) (UniProt P01112)	88.8
CC(C)CCNC(=O)CN(CCCN1CCOCC1)C(=O)Cn1nnc(-c2ccc(F)cc2)n1	GTPase HRas (Homo sapiens) (UniProt P01112)	180
Cc1ccc(-c2ccc(/C=C3\SC(N4CCOCC4)=NC3=O)o2)cc1	GTPase HRas (Homo sapiens) (UniProt P01112)	71.6
COc1ccc(CC(=O)c2ccccc2C(=O)O)cc1	GTPase HRas (Homo sapiens) (UniProt P01112)	143
CC(=O)c1cc2c(cc1NC(=O)c1cccc(S(=O)(=O)N3CCN(C)CC3)c1)OCO2	GTPase HRas (Homo sapiens) (UniProt P01112)	86.3
S=c1[nH]nc(-c2ccc3ccccc3n2)n1-c1ccccc1Cl	GTPase HRas (Homo sapiens) (UniProt P01112)	60.2
O=C(O)c1cc([N+](=O)[O-])ccc1NCc1ccccc1	GTPase HRas (Homo sapiens) (UniProt P01112)	149
O=c1c2ccccc2nc2c3ccccc3c(NCc3cccnc3)nn12	GTPase HRas (Homo sapiens) (UniProt P01112)	71.5
Cc1ccc(C)c(NC(=S)NNC(=O)c2cc3c(s2)CCC(C)C3)c1 (centres undefined)	GTPase HRas (Homo sapiens) (UniProt P01112)	67.1
O=[N+]([O-])c1ccccc1/C=C/C=N/n1c(-c2ccco2)n[nH]c1=S	GTPase HRas (Homo sapiens) (UniProt P01112)	72.9
CCCCNC(=O)c1cc([N+](=O)[O-])[nH]n1	GTPase HRas (Homo sapiens) (UniProt P01112)	74.5
CC(C)OCCCn1c(=NC(=O)c2ccncc2)c(C#N)cc2c(=O)n3ccccc3nc21	GTPase HRas (Homo sapiens) (UniProt P01112)	160
CCN1/C(=C\C=C2\C(=O)N(c3ccccc3)C(=S)N2C)Sc2ccccc21	GTPase HRas (Homo sapiens) (UniProt P01112)	73.9
Cc1cccc(OCC(=O)N/N=C/c2ccc3c(c2)OCO3)c1	GTPase HRas (Homo sapiens) (UniProt P01112)	89.5
COc1cc2[nH]c(=S)nc(Nc3ccc(NC(C)=O)cc3)c2cc1OC	GTPase HRas (Homo sapiens) (UniProt P01112)	52.2
CCOc1ccc2c(c1)c(N=NC(=N)N)c(O)n2C	GTPase HRas (Homo sapiens) (UniProt P01112)	70.3
Cc1ccc(NCC(=O)c2ccccc2)cc1Cl	GTPase HRas (Homo sapiens) (UniProt P01112)	80.6
O=C(NCCc1c[nH]c2ccccc12)c1cccc(S(=O)(=O)Nc2ccccc2Cl)c1	GTPase HRas (Homo sapiens) (UniProt P01112)	71.4
CCn1cc(C(=O)OCC(=O)c2cc(C)n(-c3cccc(C(F)(F)F)c3)c2C)c(=O)c2ccc(C)nc21	GTPase HRas (Homo sapiens) (UniProt P01112)	57.8
O=C(NC1CC2CCCC(C1)N2C(=O)Nc1ccc(Cl)c(C(F)(F)F)c1)C1CC1 (centres undefined)	GTPase HRas (Homo sapiens) (UniProt P01112)	162
O=C(O)c1cc2ccccc2nc1OCc1ccccc1	GTPase HRas (Homo sapiens) (UniProt P01112)	200
Cc1c(NS(=O)(=O)c2ccc3c(c2)Cc2ccccc2-3)c(=O)n(-c2ccccc2)n1C	GTPase HRas (Homo sapiens) (UniProt P01112)	80
Cc1cc(NC(=O)/C(C#N)=C/c2ccc(-c3ccc(SC(F)F)cc3)o2)n(-c2ccccc2)n1	GTPase HRas (Homo sapiens) (UniProt P01112)	96.7
Cc1ccc(C)c(CSc2ncccc2C(=O)O)c1	GTPase HRas (Homo sapiens) (UniProt P01112)	73.7
O=C(N/N=C/c1ccc(-c2ccccc2[N+](=O)[O-])o1)c1cncc(Br)c1	GTPase HRas (Homo sapiens) (UniProt P01112)	55.2
O=C(COC(=O)C12CC3CC(CC(C3)C1)C2)Nc1nc2c(F)c(F)c(F)cc2s1	GTPase HRas (Homo sapiens) (UniProt P01112)	68.1
COc1ccc(CNc2nc3ccccc3n2Cc2ccc(C)cc2)cc1OC	GTPase HRas (Homo sapiens) (UniProt P01112)	73.9
